Cited source for all entries: patent US20260374739A1

Target: EphrinB2-EphB2 (Homo sapiens, UniProt P29323)
Construct: soluble human EphB1-His, EphB2-His, and EphB4-His ectodomains; commercially available human EphrinB1-Fc (EB1), EphrinB2-Fc (EB2), and EphrinB3-Fc (EB3) ectodomain proteins; purchased
Sequence (P29323 19-543 limits assumed): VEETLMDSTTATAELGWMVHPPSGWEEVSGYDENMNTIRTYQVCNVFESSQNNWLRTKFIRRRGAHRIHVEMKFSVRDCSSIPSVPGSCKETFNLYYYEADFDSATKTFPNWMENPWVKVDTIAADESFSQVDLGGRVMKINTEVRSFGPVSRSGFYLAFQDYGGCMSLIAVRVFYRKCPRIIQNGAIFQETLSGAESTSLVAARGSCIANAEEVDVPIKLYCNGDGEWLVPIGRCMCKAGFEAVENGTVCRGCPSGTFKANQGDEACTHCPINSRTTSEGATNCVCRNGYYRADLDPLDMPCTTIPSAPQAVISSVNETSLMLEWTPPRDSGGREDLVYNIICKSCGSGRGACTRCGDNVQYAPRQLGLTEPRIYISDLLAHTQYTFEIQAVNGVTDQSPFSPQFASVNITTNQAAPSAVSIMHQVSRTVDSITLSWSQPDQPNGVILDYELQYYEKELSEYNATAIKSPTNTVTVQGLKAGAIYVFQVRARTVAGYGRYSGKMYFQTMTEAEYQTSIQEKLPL
Assay: Octet tetramerization inhibition, immobilized human EphrinB2 binding to 50 nM soluble human EphB2
Conditions: Absolute AUC/IC50, Table A, EphrinB2-EphB2
measured metric: IC50 (µM)
Lab book: enter the figure in µM, no units written.

Consider the reported IC50 for these compounds:
// IC50 lookup, key: COc1ccc(N2CCN(Cc3ccc(O)c4ncccc34)CC2)cc1 [Compound 72]
2.29

// IC50 lookup, key: COc1ccc(N2CCN(Cc3cc(I)c(O)c4ncccc34)CC2)cc1 [Compound 74]
0.4

// IC50 lookup, key: O=C(c1ccc(O)c2ncccc12)N1CCOCC1 [Compound 53]
2.82

Next:
// IC50 lookup, key: COc1ccc(N2CCN(Cc3cc(Br)c(O)c4ncccc34)CC2)cc1 [Compound 73]
2.29

// IC50 lookup, key: O=[N+]([O-])c1ccc(N2CCN(Cc3ccc(O)c4ncccc34)CC2)cc1 [Compound 38]
2.18
